We begin with a simple list: items and their reported melting point.

Here is how some molecules turned out for melting point.
COC(=O)CN1C(=S)CN=C(c2ccccc2Cl)c2ccccc21 :: 183 to 184 °C
c1ccc(-c2cc(-c3ccc4c(c3)OCO4)cc(OCCCCCc3nnn[nH]3)n2)cc1 :: 150 °C
Cn1c(C(F)(F)F)cc(=O)n(-c2cc(OCCOCCCl)c(Cl)cc2F)c1=O :: 191 to 193 °C
CN(c1cc(OCCCS(C)(=O)=O)cc2cc(C(=O)O)[nH]c12)S(=O)(=O)c1ccccn1 :: 207 to 208 °C
Cc1cc(=O)n(-c2cc(C(=O)OC(C)C)c(C#N)cc2F)c(=O)n1C :: 188 to 200 °C
[O-][N+]#Cc1c(Cl)ccc2cc(Cl)cnc12 :: 185 °C

[in] // melting point lookup, key: O=C(Nc1ccccc1)OC1CCN(C(=O)c2ccc(F)cc2)C1 (stereo not given)
[out] 173 to 175 °C

[in] Another molecule: "NC(=NO)c1nn([C@@H]2O[C@H](CO)[C@@H](O)[C@H]2O)c2ncnc(N)c12"
[out] 242 to 244 °C

[in] Another molecule: "COCCc1nc2c(N)nc3ccccc3c2n1CCCNC(=O)c1cc2ccccc2cn1"
[out] 198 °C

[in] Another molecule: "CC#CCNC(=NC#N)SC"
[out] 180 to 183 °C

Value source: a melting point compilation (Tetko et al.; mined from patent text by program, amines drawn as free bases though some values may be those of a salt)
